B1: ZNF263 (parent)
chain: FGGNPRFLSLHRAHLGEEAHKCLE

variants of: B1; experiment: protein stability index of a GFP-peptide fusion (GPS, HEK-293T) (PSI 1-6); higher = more stable; conditions: c terminus: a fixed tail appended;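 also: lentivirally expressed fusions sorted by FACS into six bins by GFP to DsRed ratio, PSI derived from sequencing read proportions per bin multiplied by bin number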
protein stability index for assorted variants

# VARIANT NOTATION, protein stability index
rows = [
    ("N4G", 1.56),
    ("F1K", 2.95),
    ("F7R", 3.15),
    ("A13D", 1.81),
    ("E17N", 1.97),
    ("H20A", 1.24),
    ("C22E", 2.19),
    ("H14L", 1.46),
    ("E18N", 1.07),
    ("A13W", 1.81),
    ("A19Y", 1.57),
    ("E24C", 2.15),
    ("G2Y", 2.32),
    ("S9I", 2.59),
    ("S9D", 1.34),
    ("G16K", 1.62),
    ("L15D", 2.46),
    ("N4S", 1.14),
    ("K21R", 1.05),
    ("A19V", 1.91),
    ("L8F", 2.16),
    ("H14D", 2.56),
    ("H14W", 2.42),
    ("H11D", 2.22),
    ("L8D", 3.1),
    ("R12I", 1.84),
    ("L8I", 1.41),
    ("E18T", 1.46),
    ("L8R", 2.27),
    ("N4A", 2.87),
    ("L10N", 2.22),
    ("E18Y", 1.88),
    ("G16H", 1.7),
    ("G16E", 2.51),
    ("L23W", 1.75),
    ("F1T", 3.48),
    ("G3H", 2.51),
    ("F7Q", 3.49),
    ("C22G", 1.62),
    ("G16V", 2.42),
    ("L8M", 2.25),
    ("H20C", 2.94),
    ("P5V", 1.96),
    ("R12P", 1.46),
    ("P5G", 1.64),
    ("G3R", 2.48),
    ("F1G", 3.98),
    ("K21Q", 2),
    ("H14P", 1.59),
    ("P5W", 1.96),
    ("H11K", 1.91),
    ("G2A", 1.59),
    ("A13Y", 1.72),
    ("H14F", 2.55),
    ("E18Q", 1.87),
    ("L23M", 1.96),
    ("A19H", 1.75),
    ("H20V", 1.43),
    ("F1A", 3.45),
    ("N4F", 2.15),
    ("C22H", 2.44),
    ("N4V", 2.44),
    ("R6M", 2.5),
    ("L23P", 2.02),
    ("L15Y", 2.58),
    ("E24R", 1.75),
    ("E17K", 2.5),
    ("G2W", 2.24),
    ("R6Q", 1.82),
    ("F1M", 3.81),
    ("H11G", 2.71),
    ("G3L", 2.5),
    ("L15K", 2.06),
    ("L23V", 1.83),
    ("E18F", 1.85),
    ("K21M", 2.76),
    ("F7N", 3.42),
    ("K21H", 1.89),
    ("F1N", 3.94),
    ("G2F", 2.55),
    ("S9Q", 2.9),
    ("R12N", 2.49),
    ("S9E", 1.97),
    ("H20P", 1.83),
    ("H11Y", 3.3),
    ("R6F", 2.25),
    ("P5D", 1.35),
    ("G2Q", 1.38),
    ("F7K", 3.58),
    ("F7I", 2.19),
    ("E17F", 2.94),
]
